Reported cAMP production activity (%) by item:
study system: human PTH1 receptor (Homo sapiens, UniProt Q03431)
Sequence (Q03431 27-593): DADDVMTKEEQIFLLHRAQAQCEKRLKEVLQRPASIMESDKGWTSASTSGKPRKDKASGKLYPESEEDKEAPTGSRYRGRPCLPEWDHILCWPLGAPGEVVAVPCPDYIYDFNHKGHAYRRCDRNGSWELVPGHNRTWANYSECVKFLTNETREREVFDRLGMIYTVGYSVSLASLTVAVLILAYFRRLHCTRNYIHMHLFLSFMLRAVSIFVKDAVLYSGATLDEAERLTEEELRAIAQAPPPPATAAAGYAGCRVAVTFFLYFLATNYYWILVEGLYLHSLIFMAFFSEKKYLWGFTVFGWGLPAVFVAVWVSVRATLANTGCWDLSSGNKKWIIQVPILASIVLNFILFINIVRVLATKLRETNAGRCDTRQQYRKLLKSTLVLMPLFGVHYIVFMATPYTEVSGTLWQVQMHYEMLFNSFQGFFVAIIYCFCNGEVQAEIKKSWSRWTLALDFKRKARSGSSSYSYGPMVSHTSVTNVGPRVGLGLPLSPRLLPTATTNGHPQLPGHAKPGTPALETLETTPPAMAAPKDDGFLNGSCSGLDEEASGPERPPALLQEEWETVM
test name: In vitro cAMP signal activity in HKRK-B7 cells (LLC-PK1 cells overexpressing the human PTH1 receptor)
Type: cell-based
measurement parameters: HKRK-B7 cells; compound at 1×10^−3 M; cAMP produced as percentage of that produced by hPTH(1-34) at 100 nM
State the answer as a number, implicitly in %.

Illustrative cases are given below, each with its answer.
compound: Cc1cc(C(=O)N2CCN(c3ccccn3)CC2)ccc1CCS(=O)(=O)N1CCC2(CC1)N=C(c1cccc(C(F)(F)F)c1)NC2=O [Compound 361]
study system: human PTH1 receptor (Homo sapiens, UniProt Q03431)
property name: cAMP production activity (%)
recorded measurement: 82
--
compound: Cc1cc(C(=O)N(C)C2CCN(C)CC2)cc(C)c1/C=C/S(=O)(=O)N1CCC2(CC1)N=C(c1cccc(C(F)(F)F)c1)NC2=O [Compound 393]
study system: human PTH1 receptor (Homo sapiens, UniProt Q03431)
property name: cAMP production activity (%)
recorded measurement: 44
--
compound: O=C1NC(C2CCCCC2)=NC12CCN(S(=O)(=O)c1ccc(Cl)s1)CC2 [Compound 55]
study system: human PTH1 receptor (Homo sapiens, UniProt Q03431)
property name: cAMP production activity (%)
recorded measurement: 55
--
compound: Cc1cc(C2=NC3(CCN(S(=O)(=O)/C=C/c4c(C)cc(C(=O)N5CCC(C)(O)CC5)cc4C)CC3)C(=O)N2)ccc1OC(F)(F)F [Compound 1214]
study system: human PTH1 receptor (Homo sapiens, UniProt Q03431)
property name: cAMP production activity (%)
recorded measurement: 79

// moving on: another record for cAMP production activity (%)
Consider the compound Cc1cc(C(=O)N(C)C)ccc1CCS(=O)(=O)N1CCC2(CC1)N=C(CCc1ccccc1)NC2=O [Compound 101] and give its measured cAMP production activity (%). 49

The measured values listed here are drawn from patent US9169254B2.
